The reported measurements were obtained from patent US20050267145A1.

Kindly supply the reported inhibition at 10 µM values for the records listed here.
Biological target: 5-lipoxygenase (Mus musculus, UniProt P48999)
Construct: Resident mouse peritoneal macrophages were obtained from male CD-1 mice; endogenous in cells; host or cells: resident peritoneal macrophages from male CD-1 mice (Charles River Laboratories)
Sequence (P48999 whole entry): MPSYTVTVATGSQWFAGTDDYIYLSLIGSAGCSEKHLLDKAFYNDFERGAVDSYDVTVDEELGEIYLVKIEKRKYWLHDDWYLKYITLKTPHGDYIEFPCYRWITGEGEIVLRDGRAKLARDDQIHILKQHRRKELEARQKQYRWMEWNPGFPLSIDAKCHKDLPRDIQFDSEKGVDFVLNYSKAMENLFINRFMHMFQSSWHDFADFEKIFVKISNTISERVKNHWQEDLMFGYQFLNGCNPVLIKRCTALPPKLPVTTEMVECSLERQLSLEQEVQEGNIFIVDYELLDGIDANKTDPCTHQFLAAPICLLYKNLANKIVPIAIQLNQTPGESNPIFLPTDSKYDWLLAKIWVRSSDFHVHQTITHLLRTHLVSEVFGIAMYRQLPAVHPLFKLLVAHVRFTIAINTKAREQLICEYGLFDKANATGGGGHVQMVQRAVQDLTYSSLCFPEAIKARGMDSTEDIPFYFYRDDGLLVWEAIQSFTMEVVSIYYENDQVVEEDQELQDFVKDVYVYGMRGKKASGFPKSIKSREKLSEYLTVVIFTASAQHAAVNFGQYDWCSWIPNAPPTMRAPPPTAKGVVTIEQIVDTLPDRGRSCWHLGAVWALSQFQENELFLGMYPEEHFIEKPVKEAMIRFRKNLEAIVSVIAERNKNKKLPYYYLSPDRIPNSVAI
Test: Sustained 5-lipoxygenase inhibition in vitro (LTC4 by RIA, mouse peritoneal macrophages, washout)
Assay type: cell-based
Conditions: 10 μM for 30 minutes, washed, six hours washout, zymosan 50 μg/mL challenge, read-out: Sustained Inhibition, 10 μM Initial
Give bare numbers, in %.

// worked examples, inhibition at 10 µM included
Compound	Unit of measurement	inhibition at 10 µM
CCC(CC)N(O)C(=O)Nc1ccccc1 [Compound 8, 1-hydroxy-1-(1-ethylpropyl)-3-phenylurea]	%	12
CSc1ccc(NC(=O)N(C)O)cc1	%	0
O=C(Nc1ccccc1)N(O)CCCn1cccc1	%	3
CCCCCN(O)C(=O)Nc1cc(OC)c(OC)c(OC)c1	%	24
CC(c1cc2ccccc2s1)N(O)C(N)=O (centres unmarked) [Zileuton, zileuton, reference compound]	%	28
CCC(CC)N(O)C(=O)Nc1cccc(Oc2ccccc2)c1	%	100
CSc1ccc(NC(=O)N(O)C(C)C)cc1	%	18

As a next step, examine the compound that follows.
# inhibition at 10 µM of CCCCCN(O)C(=O)Nc1ccc(Oc2ccccc2)cc1 = 100
